target: T1, M7; experiment: scFv-phage ELISA
T1 construct: also called PD1 mutant M7
ASSAY_METRIC: OD490

[[record]]
binder = "PD1-32A6 (antibody, V domains shown, scFv-phage in the screening ELISA; later whole IgG) VH: QVQLVQSGAEVKKPGSSVKVSCKASGDTFTRNAVSWVRQAPGEGLEWMADIIPIFGSANYAQKFQGRLTLTADVSTSTAYMELSSLRSEDTAVYYCARTIEGAFDIWGQGTMVTVSS VL: DIQMTQSPSSVSASVGDRVTITCRASQGIVSWLAWYQQKPGKAPRLLIYRASDLETGVPSRFSGSGSGTDFTLTISSLQPEDVATYYCQQADSFPLTFGGGTKVEIK"
observed_measurement = 3.2

[[record]]
binder = "PD1-42G4 (antibody, V domains shown, scFv-phage in the screening ELISA; later whole IgG) VH: QVQLVESGGGLVKPGGSLRLSCAASGFTFSDYYMSWIRQAPGKGLEWVSDISASGNSIYYADSVKRRFTISRDNSKNSLYLQMNSLRAEDTAVYYCVTSGPFGEFRNWGLGTLVTVSS VL: DIQMTQSPSSLSASVGDRVTTTCRASQGISSYLAWYQQKPGKAPKLLIYAASTLQSGVPSRFSGSGSGTDFTLTISSLQPEDFATYFCQQSYTSPRTFGQGTKLDIK"
observed_measurement = 2.5

[[record]]
binder = "PD1-45F4 (antibody, V domains shown, scFv-phage in the screening ELISA; later whole IgG) VH: QMQLVESGGGLVQPGRSLRLSCAASGFTFDDYAMHWVRQAPGQGLEWVSGISWNSNNIKYADSVKGRFTISRDNSKNSLYLQMNSLRAEDTAVYYCARGALTPLDVWGQGTPVTVSS VL: SYELTQAPSLSVSPGQTANIICSGDNLRTKYVSWYQQKPGQSPLLVIYQDTRRPSGIPARFSGSNSGNTATLTISGTQTRDESTYYCMTWDVDTTSMIFGGGTKLTVL"
observed_measurement = 3.5

[[record]]
binder = "PD1-51D9 (antibody, V domains shown, scFv-phage in the screening ELISA; whole IgG in the other assays) VH: QVQLVESGAEVKKPGASVKLSCKASGYTFSSYWMHWVRQAPGQRLEWMGEINPGNGHTNYNEKFKSRVTITVDKSASTAYMELSSLRSEDTAVYYCAREGDGSYWGYFDSWGQGTPITVSS VL: DIVMTQTPLSLPVTPGEPASISCRSSQSLLHSNGNNYLDWYLQKPGQSPQLLIYLGSYRASGVPDRFSGSGSGTDFTLKISRVEAEDVGLYYCMQGLQIPSTFGPGTKVDIK"
observed_measurement = 0.1

[[record]]
binder = "PD1-49A2 (antibody, V domains shown, scFv-phage in the screening ELISA; whole IgG in the other assays; also called Parent 49A2) VH: QVQLVESGGGVVQPGRSLRLSCAASGFTFSSYAMHWVRQAPGKGLEWVAVISYDGSNKYYADSVKGRFTISRDNPKNTLYLQMNSLRAEDTAVYYCTTTTFDSWGRGTLVTVSS VL: DIVMTQSPLSLPVTPGEPASISCRSSQSLFDSDDGNTYLDWYLQKPGQSPQLLIYTLSHRASGVPDRFSGSGSGTDFTLKISRVEAEDVGIYYCLQRMGFPYTFGQGTKVEIK"
observed_measurement = 0.4

